- assayed_system: Tyrosine-protein kinase ABL1 (Homo sapiens) (UniProt P00519)
- Sequence (P00519 whole entry): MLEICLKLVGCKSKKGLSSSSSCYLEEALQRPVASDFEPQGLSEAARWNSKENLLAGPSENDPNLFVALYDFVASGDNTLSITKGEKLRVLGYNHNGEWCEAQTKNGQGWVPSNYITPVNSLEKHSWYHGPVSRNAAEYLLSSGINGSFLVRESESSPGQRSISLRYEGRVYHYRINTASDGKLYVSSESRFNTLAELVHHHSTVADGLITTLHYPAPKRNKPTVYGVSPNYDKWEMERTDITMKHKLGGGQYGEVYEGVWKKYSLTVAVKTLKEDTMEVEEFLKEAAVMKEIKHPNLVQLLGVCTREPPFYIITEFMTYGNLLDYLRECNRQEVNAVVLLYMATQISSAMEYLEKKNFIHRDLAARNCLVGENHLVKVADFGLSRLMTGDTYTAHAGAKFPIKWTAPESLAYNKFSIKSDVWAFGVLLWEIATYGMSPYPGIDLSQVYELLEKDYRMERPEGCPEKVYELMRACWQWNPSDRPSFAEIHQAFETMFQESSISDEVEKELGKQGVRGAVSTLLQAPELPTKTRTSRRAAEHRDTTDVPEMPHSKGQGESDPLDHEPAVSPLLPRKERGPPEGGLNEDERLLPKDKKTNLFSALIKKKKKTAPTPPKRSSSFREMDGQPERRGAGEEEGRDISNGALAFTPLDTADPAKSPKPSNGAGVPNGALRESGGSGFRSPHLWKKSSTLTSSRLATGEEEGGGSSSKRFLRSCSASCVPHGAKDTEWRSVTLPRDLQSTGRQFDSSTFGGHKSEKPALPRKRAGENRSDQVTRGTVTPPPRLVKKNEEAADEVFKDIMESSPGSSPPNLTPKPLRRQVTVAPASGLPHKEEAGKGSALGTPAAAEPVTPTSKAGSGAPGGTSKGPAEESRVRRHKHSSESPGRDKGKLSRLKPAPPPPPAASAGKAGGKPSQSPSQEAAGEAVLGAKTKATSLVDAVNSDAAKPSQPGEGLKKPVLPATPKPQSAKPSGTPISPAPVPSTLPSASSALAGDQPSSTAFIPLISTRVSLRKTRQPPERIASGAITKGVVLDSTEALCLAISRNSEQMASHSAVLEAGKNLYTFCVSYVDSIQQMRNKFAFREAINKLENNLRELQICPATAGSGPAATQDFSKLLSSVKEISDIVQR
- test_conditions: Compound concentration 20.0 uM, Protein concentration 2.0 uM, Result type QC Liability
- Description: Thermal Shift Assay. Domain: start/stop: S229-K512
Binary classification by ΔTm, with 0.07 °C as an inclusive lower bound for True; all other cases are False.

• Cc1cc(-c2nc(-c3ccc(OC(F)(F)F)cc3)no2)nn1Cc1ccnc(N2CCN(C3CC3)CC2)c1 = True
• CC(C)(O)CNC(=O)N1C(=O)N(c2cccc(C(F)(F)F)c2)C2=C(C(=O)CC2)[C@@H]1c1ccc(C#N)cc1 = False
• COCCN(C)c1ccc(NC(=O)/C=C(\C)c2ccc3ccccc3c2)c(C(=O)O)c1 = False
• COc1cc2ncnc(Nc3cccc(O)c3)c2cc1OC = True
• COc1cc(-c2cc3ncccc3c(OC[C@H]3CNC(=O)C3)n2)cc(OC)c1OC1CCOCC1 = True
• c1ccc(C2CCN(c3cnc4c(N5CCOCC5)nccn34)CC2)cc1 = False
• CN(c1ccc(C(F)(F)F)cc1)S(=O)(=O)c1ccc(C(=O)Nc2nc(-c3ccccn3)cs2)cc1 = True

Kindly determine if ΔTm recorded for `CNc1ncc2cc(-c3ccc(-c4cccc(C)n4)cc3Cl)c(=O)n(C[C@H]3OC[C@H](N)CO3)c2n1` is above or exactly 0.07 °C.
True

* * *

- assayed_system: Casein kinase I isoform delta (Homo sapiens)
- test_conditions: Compound concentration 20.0 uM, Protein concentration 2.0 uM, Result type QC Liability
- Description: Thermal Shift Assay. Domain: start/stop: M1-K294
endpoint: ΔTm (°C)
Give bare numbers, in °C.

• CC(=O)c1c(C)c2cnc(Nc3ccc(N4CCN(CCCCNC(=O)COc5cccc6c5C(=O)N(C5CCC(=O)NC5=O)C6=O)CC4)cn3)nc2n(C2CCCC2)c1=O (stereo not drawn) = 0.26
• COc1ccc(-c2cc3c(C)nc(N)nc3n([C@H]3CC[C@H](OCCO)CC3)c2=O)cn1 = -0.16
• O=C(Nc1ccc(N2CCC(C(=O)N3CCOCC3)CC2)cc1)c1cnc(Oc2ccccc2)nc1 = 0.06
• COc1cccc(CNc2ccc(S(=O)(=O)Nc3nc4ccccc4s3)cc2)c1O = 0.86
• C[C@@H]1C[C@H](C)CN(c2ncc(Cl)c(Nc3ccc4c(c3)cc(OC(C)(C)C(=O)O)c(=O)n4C)n2)C1 = -0.08
• CN1CCN(c2ccnc(NCCc3ccccc3)n2)CC1 = 0.22
• COCCCS(=O)(=O)c1cc(C)c(-c2ccc(F)c3c2CC[C@H]3Oc2ccc3c(c2)OC[C@H]3CC(=O)O)c(C)c1 = 0.06

Next item in the queue.
Data point: CCCCCNC(=O)N1CCC(CN(Cc2ccc(Cl)cc2)Cc2ccc([N+](=O)[O-])s2)C1 (stereo not drawn) ; ΔTm = 0.7

* * *

- assayed_system: Mitogen-activated protein kinase 1 (Homo sapiens) (UniProt P28482)
- Sequence (P28482 whole entry): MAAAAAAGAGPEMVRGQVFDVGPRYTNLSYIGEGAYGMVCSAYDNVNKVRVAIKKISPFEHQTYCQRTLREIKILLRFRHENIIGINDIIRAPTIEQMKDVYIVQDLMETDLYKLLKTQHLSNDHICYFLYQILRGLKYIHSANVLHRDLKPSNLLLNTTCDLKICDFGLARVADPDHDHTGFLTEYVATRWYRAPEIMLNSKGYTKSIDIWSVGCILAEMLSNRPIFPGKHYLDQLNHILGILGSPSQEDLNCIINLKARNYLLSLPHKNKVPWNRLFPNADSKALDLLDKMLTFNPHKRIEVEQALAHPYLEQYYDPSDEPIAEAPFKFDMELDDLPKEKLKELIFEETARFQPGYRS
- test_conditions: Compound concentration 20.0 uM, Protein concentration 2.0 uM, Result type QC Liability
- Description: Thermal Shift Assay. Domain: start/stop: M1-S360
Binary classification by ΔTm, with 0.3 °C as an inclusive lower bound for y; all other cases are n.

Solved entries (count: 8):
* Cn1cc(-c2cnc3ccc4ccc(CS(=O)(=O)NCc5ccccn5)cc4c(=O)c3c2)cn1 | n
* CCCCc1c(-c2ccccc2)nc(N)nc1-c1ccc(OCc2ccccc2)c(F)c1F | n
* O=C(Nc1cccc(Nc2nccc(Nc3cccc(C(F)(F)F)c3)n2)c1)C1CC1 | y
* CC[C@@H]1C(=O)N(C)c2cnc(Nc3ccc(C(=O)NC4CCN(C)CC4)cc3OC)nc2N1C1CCCC1 | n
* Cc1[nH]nc(C(F)(F)F)c1Cc1sc2c(c1C(=O)N1C[C@](C)(O)CO1)c(=O)n(C)c(=O)n2C(C)C | n
* CCN(C)S(=O)(=O)Nc1cccc(-c2ccc3c(NC(=O)C4CC4)n[nH]c3c2)c1 | y
* CCCCOc1c(C(=O)c2c(F)cc(C)cc2F)c[nH]c2nncc1-2 | n
* COc1cc2c(cc1CC=C(C)C)C(=O)C[C@@H](c1ccc(O)cc1)O2 | y

Kindly determine if ΔTm recorded for `O=S(=O)(Nc1ccc(C(O)(C(F)(F)F)C(F)(F)F)cc1)c1cccs1` is above or exactly 0.3 °C.
y

Kindly determine if ΔTm recorded for `CCCCc1oc2ccccc2c1C(=O)c1cc(I)c(OCCN(CC)CC)c(I)c1` is above or exactly 0.3 °C.
n

Kindly determine if ΔTm recorded for `CC(C)(c1ccc(OCc2cccc(COc3ccc(C(=N)N)cc3)c2)cc1)c1ccc(O[C@@H]2O[C@H](C(=O)O)[C@@H](O)[C@H](O)[C@H]2O)cc1` is above or exactly 0.3 °C.
n

Kindly determine if ΔTm recorded for `CS(=O)(=O)c1cc(C2(NC(=O)c3cncc4c3cnn4-c3ccc(F)cc3)CC2)ccn1` is above or exactly 0.3 °C.
n

Kindly determine if ΔTm recorded for `CN1C(=O)c2ccccc2N(C)c2nc(Nc3cnn(C4CCNCC4)c3)ncc21` is above or exactly 0.3 °C.
y

Kindly determine if ΔTm recorded for N=C(N)NCCC[C@H](NC(=O)CC1(CC(=O)N2CCN(C3c4ccccc4NC(=O)c4ccccc43)CC2)CCCC1)C(=O)NCCn1c(=O)n(-c2ccccc2)n(-c2ccccc2)c1=O (stereo partly drawn) is above or exactly 0.3 °C.
n

Kindly determine if ΔTm recorded for `COc1ccc(S(=O)(=O)N2CCOCC2)cc1Nc1ccc2c(n1)N(C1CCOCC1)[C@H](C)C(=O)N2C` is above or exactly 0.3 °C.
n

Kindly determine if ΔTm recorded for `COc1ccccc1S(=O)(=O)Nc1ccc2c(c1)CN(C)C(=O)N2` is above or exactly 0.3 °C.
n

* * *

- assayed_system: Cyclin-dependent kinase 2 (Homo sapiens) (UniProt P24941)
- test_conditions: Compound concentration 20.0 uM, Protein concentration 2.0 uM, Result type QC Liability
- Description: Thermal Shift Assay. Domain: start/stop: M1-L298
endpoint: ΔTm (°C)
Give bare numbers, in °C.

* Cc1c(-c2c(F)cc(C(N)=O)c3[nH]c4c(c23)CC[C@H](C(C)(C)O)C4)cccc1-n1c(=O)c2cccc(F)c2n(C)c1=O | 0.48

Value sought for every listed molecule: ΔTm.
1. CSc1ccc(C[C@@H](C)C(=O)O)cc1Nc1nc(N2CC[C@H](N(C)C)C2)cc(C(F)F)c1C#N
2. CC(C)c1nc2c(c3c1[C@H](c1ccc(C(F)(F)F)cc1)OC31CCOCC1)[C@H](O)CC(C)(C)C2
3. NCCCc1c(C(=O)O)[nH]c2ccc(C(=O)Nc3ccccc3)cc12
4. CCc1nc(C2CCC2)n2nc(-c3ccccc3)[nH]c(=O)c12
5. N=C(N)NCCC[C@H](NC(=O)CC1(CC(=O)N2CCN(C(c3ccccc3)c3ccccc3)CC2)CCCC1)C(=O)NCc1ccccc1
6. CC1(C)Cc2nc(C3CCCC3)c([C@@H](F)c3ccc(C(F)(F)F)cc3)c(C3CCCCC3)c2[C@@H](O)C1
7. CCn1c(=O)c2c(C)c(C(=O)N3CCC(O)CC3)sc2n(CCC(F)(F)F)c1=O

1: 0.56; 2: -0.68; 3: 0.25; 4: 1.98; 5: -1.78; 6: 1.04; 7: 0.49

Data point: `COc1cc(-c2cncc(-c3ccc(N4CCN(C(C)C)CC4)cc3)c2C)cc(F)c1C(=O)N1CCCC1` ; ΔTm = 0.41

* * *

- assayed_system: Mitogen-activated protein kinase 1 (Homo sapiens) (UniProt P28482)
- test_conditions: Compound concentration 20.0 uM, Protein concentration 2.0 uM, Result type QC Liability
endpoint: ΔTm

Worked cases, ΔTm given:
• CC1(C)C[C@@H]1C(=O)N/C(=C\CCCCSC[C@H](N)C(=O)O)C(=O)O = -0.39 °C
• Fc1ccc(Cl)cc1-c1nc(Nc2ccncc2)c2nccnc2n1 = 0.56 °C
• Cn1nc(-c2ccc(C(N)=O)cc2)c2ccccc2c1=O = 0.56 °C

Value sought for every listed molecule: ΔTm.
1. COC(=O)Nc1nc2c(s1)-c1c(c(-c3cccnc3)nn1-c1ccc(C3(N(C)C)CC3)cc1)CC2
2. Cn1ccc(Cn2cnc(-c3ccc(F)cc3)c2-c2ccnc3[nH]ccc23)n1
3. CN(C)c1ccc(-c2cc3ncccc3c(OCCCCO)n2)cc1
4. C=CC[C@@H]1/C=C(\C)C[C@H](C)C[C@H](OC)[C@H]2O[C@@](O)(C(=O)C(=O)N3CCCC[C@H]3C(=O)O[C@H](/C(C)=C/[C@@H]3CC[C@@H](O)[C@H](OC)C3)[C@H](C)[C@@H](O)CC1=O)[C@H](C)C[C@@H]2OC
5. COc1ccc(F)c(F)c1C(=O)c1cnc(NC2CCN(S(C)(=O)=O)CC2)nc1N

1. 0.36 °C
2. 0.21 °C
3. 0.3 °C
4. -1.81 °C
5. 0.27 °C

* * *

- assayed_system: Glycogen synthase kinase-3 beta (Homo sapiens) (UniProt P49841)
- Sequence (P49841 whole entry, looked up): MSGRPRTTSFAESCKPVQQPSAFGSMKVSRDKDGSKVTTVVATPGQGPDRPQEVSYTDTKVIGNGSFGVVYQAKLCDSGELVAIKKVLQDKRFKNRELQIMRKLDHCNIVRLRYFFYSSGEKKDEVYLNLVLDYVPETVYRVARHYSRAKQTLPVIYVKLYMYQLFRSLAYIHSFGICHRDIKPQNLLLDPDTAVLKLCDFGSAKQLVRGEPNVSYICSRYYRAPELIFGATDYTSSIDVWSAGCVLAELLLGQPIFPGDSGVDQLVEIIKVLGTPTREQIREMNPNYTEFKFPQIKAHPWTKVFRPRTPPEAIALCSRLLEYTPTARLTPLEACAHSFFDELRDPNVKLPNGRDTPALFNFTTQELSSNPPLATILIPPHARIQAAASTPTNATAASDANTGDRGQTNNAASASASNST
- test_conditions: Compound concentration 20.0 uM, Protein concentration 2.0 uM, Result type QC Liability
- Description: Thermal Shift Assay. Domain: start/stop: M26-R383
endpoint: ΔTm (°C)
Numbers only, in °C.

Worked cases, ΔTm given:
• CN(C)C(=O)Cn1cc(-c2nc(C3(c4ccc(-c5cnc(N)nc5)cc4)CC3)no2)cn1 = -0.37
• CC1(C)Oc2ncnc(N)c2N=C1c1ccc([C@H]2CC[C@H](CC(=O)O)CC2)cc1 = 0.61
• CCN1C(=O)N(c2c(F)c(OC)cc(OC)c2F)Cc2cnc3[nH]c(CN4CCOCC4)cc3c21 = -0.33
• O=C(O)CCCCN(CCc1ccccc1OCc1ccc(CCc2ccccc2)cc1)Cc1ccc(C(=O)O)cc1 = -0.16
• CC(=O)Nc1ncc(CN2CCC[C@H](Cc3cc(C)nc(C)c3)C2)s1 = -0.15
• CCCCC(C)(O)C/C=C/[C@H]1[C@H](O)CC(=O)[C@@H]1CCCCCCC(=O)O (stereo partly drawn) = 0.33
• Cc1nn(-c2ccccc2)c(Nc2ccccc2C(=O)O)c1-c1cc2nccnc2c(F)c1F = 1
• CC(C)S(=O)(=O)c1ccccc1Nc1nc(N[C@@H]2CCCN(CCCCCCCNC(=O)COc3cccc4c3C(=O)N(C3CCC(=O)NC3=O)C4=O)C2)ncc1Cl (stereo partly drawn) = 11.1
• Cc1cnc(-c2cnc(NCCNc3ccc(C#N)cn3)nc2-c2ccc(Cl)cc2Cl)[nH]1 = 14.6
• Cc1c(N2CCNCC2)nc2ccc(Br)cc2c1C(=O)NC[C@H](CCC(=O)O)c1ccccc1Cl = 0.03

Value sought for every listed compound: ΔTm.
1. COc1cc(-c2cc3ncccc3c(O[C@@H](C)[C@H]3CNC(=O)C3)n2)cc(OC)c1OC
2. CC1(C)C[C@@H]1C(=O)N/C(=C\CCCCSC[C@H](N)C(=O)O)C(=O)O
3. Cc1nc2c(cc1F)c(-c1nnc3c(n1)NC(=O)C3(C)C)nn2Cc1cccc(F)c1F
4. O=C(O)c1ccc(CN2C[C@@H]3C[C@H]2CN3Cc2ccc(Oc3ccc(-c4ncco4)cc3)cc2)cc1

[-0.57, 0.21, -0.14, -0.14]

Value sought for every listed compound: ΔTm.
1. Cn1c(C2(NC(=O)c3ccc(NCC4CCCCC4)nc3)CCC2)nc2ccc(/C=C/C(=O)O)cc21
2. Cc1cc(NC(=O)c2cccc(NC(=O)/C=C/CN(C)C)c2)ccc1Nc1nccc(-c2cccnc2)n1

1: -1.07; 2: 6.68

Value sought for every listed compound: ΔTm.
1. COc1cc(-c2cncc(-c3ccc(N4CCN(C(C)C)CC4)cc3)c2C)cc(F)c1C(=O)N1CCCC1
2. O=C(N[C@H]1CCC[C@H](CO)C1)C1CCN(c2nc3cc(Cl)c(-c4ccc(Cl)cc4)cc3o2)CC1

1. -0.59
2. 1.1
